# Test target: D(2) dopamine receptor (Rattus norvegicus)
# Sequence (P61169 whole entry): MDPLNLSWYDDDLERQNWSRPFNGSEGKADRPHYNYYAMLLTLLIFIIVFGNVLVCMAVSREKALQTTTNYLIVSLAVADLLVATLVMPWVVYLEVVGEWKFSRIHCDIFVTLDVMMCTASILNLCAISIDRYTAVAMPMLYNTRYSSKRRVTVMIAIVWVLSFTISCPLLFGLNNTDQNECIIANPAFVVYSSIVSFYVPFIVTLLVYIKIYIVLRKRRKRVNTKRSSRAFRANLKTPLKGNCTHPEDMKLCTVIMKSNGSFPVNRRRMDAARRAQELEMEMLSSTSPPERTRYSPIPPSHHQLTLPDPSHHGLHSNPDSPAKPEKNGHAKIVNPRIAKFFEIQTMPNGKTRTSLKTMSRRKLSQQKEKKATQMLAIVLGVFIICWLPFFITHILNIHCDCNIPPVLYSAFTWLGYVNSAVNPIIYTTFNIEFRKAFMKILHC
# Protocol summary: In vitro antagonistic activity against Dopamine receptor D2 was evaluated for the inhibition of [3H]spiperone binding
pIC50: −log10 of the molar value.
Value type: pIC50

Study these solved cases before continuing.
Q: Quick check: pIC50 of CCN(CC)CCNC(=O)c1cc(Cl)c(N)cc1OCC(C)(C)O ?
A: < 6.00

Q: Fill in the blank: the reported pIC50 of CCCOc1cc(N)c(Cl)cc1C(=O)NCCN(CC)CC is ____.
A: < 6.00

Q: What pIC50 value was documented for this compound, CCN(CC)CCNC(=O)c1cc(Cl)c(N)cc1OCC(O)COC (stereo unspecified) ?
A: < 6.00

Continuing:
Q: State the recorded pIC50 for this entry: CCN(CC)CCNC(=O)c1cc(Cl)c(N)cc1O
A: < 6.00

Q: I'd like to know its pIC50. The compound in question is CCN(CC)CCNC(=O)c1cc(Cl)c(N)cc1OCCC(C)OC (stereo unspecified)
A: < 6.00

Q: I would be grateful if you could share the reported pIC50 for C=CCOc1cc(N)c(Cl)cc1C(=O)NCCN(CC)CC .
A: < 6.00

Q: Record request: pIC50 value, item CCN(CC)CCNC(=O)c1cc(Cl)c(N)cc1OC[C@@H](C)O (stereo in doubt; 8f)
A: < 6.00

Q: Fill blank: measured pIC50 of the compound CCN(CC)CCNC(=O)c1cc(Cl)c(N)cc1OCC(C)O (stereo unspecified) is ____.
A: < 6.00

Q: # lookup: pIC50 of CCN(CC)CCNC(=O)c1cc(Cl)c(N)cc1OCC(=O)C(C)C
A: < 6.00

###

Measured ED50, listed per entry.
# Test target: D(2) dopamine receptor (Canis lupus familiaris)
# Protocol summary: In vivo antagonism activity against dopamine D2 receptor was measured as emesis in dog when administered subcutaneously
# Assay type: functional, organism-based

Q: Suppose we examine the compound C=C(C)COc1cc(N)c(Cl)cc1C(=O)NCCN(CC)CC ; what ED50 value has been reported?
A: > 3 mg/kg

Q: For the compound CCN(CC)CCNC(=O)c1cc(Cl)c(N)cc1OC(C)C(C)=O (configuration not stated) [BATANOPRIDE] , what ED50 is on record?
A: > 3 mg/kg

Q: Looking for the measured ED50 of CCN1CCCNC(=O)c2cc(Cl)c(N)cc2OCCOCC1 , can you help?
A: > 3 mg/kg

Q: For the compound shown here, CCN(CC)CCNC(=O)c1cc(Cl)c(N)cc1O , give the reported ED50.
A: > 1 mg/kg

Q: // ED50 lookup, key: C=CCN1CCCC1CNC(=O)c1cc2nn[nH]c2cc1OC (configuration not stated) [ALIZAPRIDE]
A: 0.3 mg/kg

New cases:
Q: Would you kindly share the measured ED50 for CCN(CC)CCNC(=O)c1cc(Cl)c(N)cc1OCC(=O)OC ?
A: > 3 mg/kg

Q: ED50 lookup needed for CCN(CC)CCNC(=O)c1cc(Cl)c(N)cc1OCC(O)Cc1ccccc1 (configuration not stated) , thanks.
A: > 3 mg/kg

Q: For the compound C=CCOc1cc(N)c(Cl)cc1C(=O)NCCN(CC)CC , what ED50 is on record?
A: > 1 mg/kg

###

# Test system: Mustela putorius furo
# Protocol summary: In vivo antagonism of cisplatin-induced emesis in ferret measured as percentage protection for twice the dose of 3 mg/kg and in 3 ferrets
# Assay type: functional
Classification by Protection | ranges: bucket 1: < 50%; bucket 2: ≥ 50% and < 80%; bucket 3: ≥ 80%

Past entries and their recorded results:
Q: # classify by Protection band: CCC(=O)COc1cc(N)c(Cl)cc1C(=O)NCCN(CC)CC
A: bucket 3

Q: Category lookup for the compound CCN(CC)CC/N=C(\NOC)c1cc(Cl)c(N)cc1OC
A: bucket 1

Q: Lab note: which band did CCN(CC)CCNC(=O)c1cc(Cl)c(N)cc1OCC1(C)CO1 (stereo not given) land in?
A: bucket 2

Q: GET /class?item= CCN(CC)CCNC(=O)c1cc(Cl)c(N)cc1OC/C(C)=N/O
A: bucket 3

Q: Class (by measured Protection) for CCN(CC)CCNC(=O)c1cc(Cl)c(N)cc1OCC(O)CO (stereo not given)
A: bucket 1

Next, consider the following compound.
Q: Exam item: assign CCN(CC)CCNC(=O)c1cc(Cl)c(N)cc1OCC(=O)c1cccs1 to the correct category.
A: bucket 3

###

Protection listing for selected compounds.
# Test system: Mustela putorius furo
# Protocol summary: In vivo antagonism of cisplatin-induced emesis in ferret measured as percentage protection for twice the dose of 3 mg/kg and in 3 ferrets
# Assay type: functional
Only the number, expressed in %, is required.

Use the examples below as a reference point.
Q: Data request, read-out Protection, for CCN(CC)CCNC(=O)c1cc(Cl)c(N)cc1OCCC1(C)OCCO1
A: 80

Q: # get_value(readout='Protection', item= CCN(CC)CCNC(=O)c1cc(Cl)c(N)cc1OCCC(C)OC (centres undefined) )
A: 82

Q: Value lookup for Protection; key = O=c1[nH]c2ccccc2n1CCCN1CCC(n2c(=O)[nH]c3cc(Cl)ccc32)CC1 [DOMPERIDONE]
A: 50

New cases:
Q: Give the measured Protection of CCN(CC)CCNC(=O)c1cc(Cl)c(N)cc1OC1CCCC[C@H]1OC (some centres undefined) .
A: 82
